// data source = patent US20250186391A1

tested-system: Factor D (Homo sapiens (Human))
parameter: IC50

Data request: Factor D (Homo sapiens (Human)) / IC50 / COc1ccc(CC(=O)O)c(OCc2coc3c(NCC4CC4)cc(-c4cccc(CN)c4)cc23)c1 [Compound 276e] : value?
Data returned: < 1000 nM

Data request: Requested read-out IC50, target or system Factor D (Homo sapiens (Human)), entry NCc1cccc(-c2cc(CN3CCOCC3)c3occ(COc4ccccc4CC(=O)O)c3c2)c1 [Compound 79h]
Data returned: < 1000 nM

###

The following molecules have recorded IC50 on Factor D (Homo sapiens (Human)).

Examples with their reported IC50 follow.
NCc1cccc(-c2ccc3c(c2)c(COc2ccccc2CC(=O)O)nn3C2CCCC2)c1 [Compound 292c]
< 1 µM
NCc1cccc(-c2ccc3ncc(COc4ccccc4CC(=O)O)n3c2)c1 [Compound 65e]
< 1 µM
COc1c(CN)cccc1-c1ccc2c(c1)c(COc1ccccc1CC(=O)O)nn2C(C)C [Compound 325b]
1 to 10 µM
Cc1ccc(S(=O)(=O)n2cc(COc3ccccc3CC(=O)O)c3cc(-c4cccc(CN)c4)ccc32)cc1 [Compound 66f]
< 1 µM

Data request: Can you look up the measured IC50 of NCc1cccc(-c2ccc3oc(C4CC4)c(COc4ccccc4CC(=O)O)c3c2)c1 [Compound 133f] for me?
Data returned: < 1 µM

Data request: What does the data say about its IC50? Entry: COc1c(-c2ccc3c(c2)c(COc2ccccc2CC(=O)O)nn3C2CCCC2)ccnc1CN [Compound 327d]
Data returned: 1 to 10 µM

Data request: Which IC50 is reported for this molecule? CC(C)n1nc(COc2ccccc2CC(=O)O)c2cc(-c3cccc(CN)c3)ccc21 [Compound 182e]
Data returned: < 1 µM

###

tested-system: Factor D (Homo sapiens (Human))
parameter: IC50

The following compounds have reported results that may help.
Cc1oc2ccc(-c3cccc(CN)c3)cc2c1COc1cc(F)ccc1CC(=O)O [Compound 200c]
< 1000 nM
COCCNc1cc(-c2cccc(CN)c2)cc2c(COc3ccccc3CC(=O)O)coc12 [Compound 296d]
< 1000 nM
NCc1cccc(-c2ccc3occ(COc4ccc(F)cc4CC(=O)O)c3c2)c1F [Compound 45b]
< 1000 nM
NCc1cccc(-c2coc3c(COc4ccccc4CC(=O)O)cccc23)c1 [Compound 96e]
> 10000 nM

Data request: IC50 lookup needed for NCc1cccc(-c2cc(NC[C@@H]3CCCO3)c3occ(COc4ccccc4CC(=O)O)c3c2)c1 [Compound 275d] , thanks.
Data returned: < 1000 nM

Data request: Record request: IC50 value, item CC(C)(C)OC(=O)n1cc(Cc2cccc(CC(=O)O)c2O)c2cc(-c3cccc(CN)c3)ccc21 [Compound 75e]
Data returned: > 10000 nM

Data request: Given the entry Cc1ccc(CC(=O)O)c(OCc2c3cc(-c4cccc(CN)c4)ccc3nn2C(C)C)c1 [Compound 256c] , report its measured IC50.
Data returned: < 1000 nM

Data request: What value of measured IC50 is listed for CC(C)n1nc(COc2ccccc2CC(=O)O)c2cc(-c3cc(CN)cc(C4CCN(C)CC4)c3)ccc21 [Compound 333f] ?
Data returned: > 10000 nM

###

The following molecules have recorded IC50 on Factor D (Homo sapiens (Human), UniProt P00746).
Sequence (P00746 26-253): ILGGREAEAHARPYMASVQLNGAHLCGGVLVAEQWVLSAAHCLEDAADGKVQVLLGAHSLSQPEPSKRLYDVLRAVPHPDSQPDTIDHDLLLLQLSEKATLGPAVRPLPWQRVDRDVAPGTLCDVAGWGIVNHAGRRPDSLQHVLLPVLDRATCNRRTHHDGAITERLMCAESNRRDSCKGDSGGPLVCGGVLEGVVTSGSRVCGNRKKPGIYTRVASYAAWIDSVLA

Would you please look over these solved cases?
COc1ccc(CC(=O)O)c(OCc2coc3c(NCC4CCCC4)cc(-c4cccc(CN)c4)cc23)c1 [Compound 277c]
< 1000 nM
NCc1cccc(-c2cc(Cl)cc3c(COc4ccccc4CC(=O)O)coc23)c1 [Compound 193b]
1000 to 10000 nM
NCc1cccc(-c2ccc3occ(COc4c(CN)cccc4CC(=O)O)c3c2)c1 [Compound 145c]
< 1000 nM
Cc1ccc(CC(=O)O)c(OCc2c3cc(-c4cccc(CN)c4)ccc3nn2C)c1 [Compound 211c]
< 1000 nM
NCc1cccc(-c2ccc3nnc(COc4ccccc4CC(=O)O)n3c2)c1 [Compound 212d]
< 1000 nM
COc1ccc(CC(=O)O)c(OCc2c(C)oc3ccc(-c4cccc([C@H](C)N)c4)cc23)c1 [Compound 240b]
< 1000 nM

Data request: For the record CNc1cc(-c2cccc(CN)c2)cc2c(COc3ccccc3CC(=O)O)coc12 [Compound 152d] , what value of IC50 is listed for Factor D (Homo sapiens (Human), UniProt P00746)?
Data returned: < 1000 nM

Data request: Under Factor D (Homo sapiens (Human), UniProt P00746): IC50 value of NCc1cccc(-c2cc(CN3CCNCC3)c3occ(COc4ccccc4CC(=O)O)c3c2)c1 [Compound 122b] ?
Data returned: < 1000 nM

Data request: Any idea what IC50 came out for COc1cc2occ(COc3ccccc3CC(=O)O)c2cc1-c1cccc(CN)c1 [Compound 69f] on Factor D (Homo sapiens (Human), UniProt P00746)?
Data returned: < 1000 nM

Data request: Checklist item: IC50 tested on Factor D (Homo sapiens (Human), UniProt P00746), entry CCc1oc2ccc(-c3cccc(CN)c3)cc2c1COc1cc(C)ccc1CC(=O)O [Compound 319c] , value?
Data returned: < 1000 nM

Data request: Value wanted: IC50 (Factor D (Homo sapiens (Human), UniProt P00746)) of entry NCc1cccc(-c2cc(C(=O)O)cc3cc(COc4ccccc4CC(=O)O)oc23)c1 [Compound 37b]
Data returned: 1000 to 10000 nM

Data request: Please state recorded IC50 (tested on Factor D (Homo sapiens (Human), UniProt P00746)) of NCc1cccc(-c2cc(CNCC3CC3)cc3cc(COc4ccccc4CC(=O)O)oc23)c1 [Compound 11d]
Data returned: < 1000 nM

Data request: Notebook: pull reported IC50 for Factor D (Homo sapiens (Human), UniProt P00746), entry COc1ccc(CC(=O)O)c(OCc2c(C(C)(C)C)oc3ccc(-c4cccc(CN)c4)cc23)c1 [Compound 174c]
Data returned: < 1000 nM

###

tested-system: Factor D (Homo sapiens (Human))
assay-remarks: Factor D esterolytic assay
Assay type: biochemical
conditions-used: Z-Lys-SBzl substrate, 100 mM HEPES, 500 mM NaCl, pH 7.5, 10% DMSO; tested a minimum of three times; read-out: Measured Ki (IC50) Value for Compounds: IC50
Description: The IC50 value of a compound (i.e., the concentration of the compound that inhibits 50% of the enzymatic activity) was calculated according to the procedure reported in U.S. Pat. No. 6,653,340 B1, e.g., column 74 (incorporated by reference). Specifically, the compounds were dissolved in a stock solution of DMSO at 10.0 or 100 mM. […] The reaction rates were measured spectrophotometrically by the generation of product at 405 nm for 600 sec. […]
pIC50: −log10 of the molar value.
parameter: pIC50

Cc1cc2occ(COc3ccccc3CC(=O)O)c2cc1-c1cccc(CN)c1 [Compound 70f]
5.00 to 6.00
CC(C)c1ccc(CC(=O)O)c(OCc2coc3ccc(-c4cccc(CN)c4)cc23)c1 [Compound 190f]
> 6.00
NCc1cccc(-c2cc(N3CCOCC3)c3occ(COc4ccccc4CC(=O)O)c3c2)c1 [Compound 154c]
> 6.00

Data request: Item under review: CC(C)n1nc(C(=O)Nc2ccccc2C(=O)O)c2cc(-c3cccc(CN)c3)ccc21 [Compound 314e] . Reported pIC50?
Data returned: < 5.00

###

Data export: pIC50 values recorded with Factor D (Homo sapiens (Human), UniProt P00746).
pIC50: −log10 of the molar value.

Example entries begin here.
COC[C@H]1CCCN1Cc1cc(-c2cccc(CN)c2)cc2c(COc3ccccc3CC(=O)O)coc12 [Compound 205d]
> 6.00
COc1c(-c2ccc3c(c2)c(COc2ccccc2CC(=O)O)nn3C(C)C)ccnc1CN [Compound 326d]
5.00 to 6.00
Cn1ccc(COc2cc(-c3cccc(CN)c3)cc3c(COc4ccccc4CC(=O)O)coc23)n1 [Compound 198f]
> 6.00
Cc1nn(C)c(C)c1-c1cc(-c2cccc(CN)c2)cc2c(COc3ccccc3CC(=O)O)coc12 [Compound 268c]
> 6.00
NCc1cccc(-c2cc(COc3ccccc3CC(=O)O)cc3cc(COc4ccccc4CC(=O)O)oc23)c1F [Compound 13b]
> 6.00

Data request: Field request: pIC50 | item: NCc1cccc(-c2cc(-c3ccccc3N)c3occ(COc4ccccc4CC(=O)O)c3c2)c1 [Compound 222c]
Data returned: > 6.00

Data request: Quick check: pIC50 of NCc1cccc(-c2ccc3occ(COc4c(F)cccc4CC(=O)O)c3c2)c1F [Compound 46b] ?
Data returned: > 6.00

Data request: Which pIC50 reading was recorded for the compound NCc1cccc(-c2ccc3occ(COc4c(F)cccc4CC(=O)O)c3c2)c1 [Compound 44d] ?
Data returned: > 6.00

###

pIC50: −log10 of the molar value.
The following are reported pIC50 results, target or system Factor D (Homo sapiens (Human), UniProt P00746).

Solved entries (count: 3):
CC(C)n1nc(COc2ccccc2CC(=O)O)c2cc(-c3ccc(N)cc3)ccc21 [Compound 322c]
< 5.00
NCc1cccc(-c2cc3c(COc4ccccc4CC(=O)O)csc3c3occc23)c1 [Compound 232h]
> 6.00
COc1ccc(CC(=O)O)c(OCc2coc3ccc(-c4ccnc(CN)c4)cc23)c1 [Compound 68e]
> 6.00

Data request: Missing value: pIC50, Factor D (Homo sapiens (Human), UniProt P00746), entry CN1CCN(Cc2cc(-c3cccc(CN)c3)cc3c(COc4ccccc4CC(=O)O)coc23)CC1 [Compound 157e] . Fill in?
Data returned: > 6.00

Data request: Give pIC50 (Factor D (Homo sapiens (Human), UniProt P00746)) of the following molecule: Cc1cc2c(o1)c(-c1cccc(CN)c1)cc1c(COc3ccccc3CC(=O)O)c(C)oc12 [Compound 272n]
Data returned: > 6.00

Data request: What is its pIC50 for Factor D (Homo sapiens (Human), UniProt P00746)? Entry: NCc1cccc(-c2cccc3oc(COc4ccccc4CC(=O)O)cc23)c1 [Compound 26a]
Data returned: > 6.00

Data request: Kindly state the measured pIC50 obtained for NCc1cccc(-c2cc(CN3CCC(F)(F)C3)c3occ(COc4ccccc4CC(=O)O)c3c2)c1 [Compound 181f] with Factor D (Homo sapiens (Human), UniProt P00746).
Data returned: > 6.00

Data request: Factor D (Homo sapiens (Human), UniProt P00746) / pIC50 / COc1ccc(CC(=O)O)c(OCc2c3cc(-c4cccc(CN)c4)ccc3nn2C(C)C)c1 [Compound 255c] : value?
Data returned: > 6.00

Data request: Provide the documented pIC50 with Factor D (Homo sapiens (Human), UniProt P00746) as the system for CC(C)n1nc(COc2ccccc2CC(=O)O)c2cc(-c3cccc(N)c3)ccc21 [Compound 321c]
Data returned: 5.00 to 6.00

Data request: Form field: pIC50 recorded for CC(C)(C)c1oc2ccc(-c3cccc(CN)c3)cc2c1COc1cc(F)ccc1CC(=O)O [Compound 173c] with Factor D (Homo sapiens (Human), UniProt P00746) (enter value)
Data returned: > 6.00

Data request: // map NCc1cccc(-c2ccc3c(COc4ccccc4CC(=O)O)coc3c2)c1 [Compound 94d] to recorded pIC50 (system: Factor D (Homo sapiens (Human), UniProt P00746))
Data returned: < 5.00

Data request: Can you look up pIC50 on Factor D (Homo sapiens (Human), UniProt P00746) for COc1cc(-c2cccc(CN)c2)cc2c(COc3c(C)cccc3CC(=O)O)coc12 [Compound 237c] ?
Data returned: > 6.00

Data request: What pIC50 appears in the records for this molecule with Factor D (Homo sapiens (Human), UniProt P00746)? CN(Cc1cc(-c2cccc(CN)c2)cc2c(COc3ccccc3CC(=O)O)coc12)C1CC1 [Compound 261e]
Data returned: > 6.00

Data request: Form field - read-out: pIC50; system: Factor D (Homo sapiens (Human), UniProt P00746); submitted item: CC(C)n1nc(COc2ccccc2CC(=O)O)c2cc(-c3cccc([C@H](N)CO)c3)ccc21 [Compound 267b]
Data returned: > 6.00

Data request: Give Factor D (Homo sapiens (Human), UniProt P00746) pIC50 for NCc1cccc(-c2ccc3oc(C(O)C(F)(F)F)c(COc4ccccc4CC(=O)O)c3c2)c1 (centres unmarked) [Compound 140c]
Data returned: > 6.00

Data request: Give Factor D (Homo sapiens (Human), UniProt P00746) pIC50 for Cc1ccc(CC(=O)O)c(OCc2nn(C(C)C)c3ccc(-c4cccc(CN)c4)cc23)c1 [Compound 254c]
Data returned: > 6.00

Data request: Test system Factor D (Homo sapiens (Human), UniProt P00746); read-out pIC50; what value for NCc1cccc(-c2cc(F)cc3cc(COc4ccccc4CC(=O)O)oc23)c1 [Compound 31f] ?
Data returned: > 6.00
